FYI, the data here is from patent US9783527B2.

ASSAY SYSTEM: human Nav1.7 (Homo sapiens (Human), UniProt Q15858)
Sequence (Q15858 whole entry): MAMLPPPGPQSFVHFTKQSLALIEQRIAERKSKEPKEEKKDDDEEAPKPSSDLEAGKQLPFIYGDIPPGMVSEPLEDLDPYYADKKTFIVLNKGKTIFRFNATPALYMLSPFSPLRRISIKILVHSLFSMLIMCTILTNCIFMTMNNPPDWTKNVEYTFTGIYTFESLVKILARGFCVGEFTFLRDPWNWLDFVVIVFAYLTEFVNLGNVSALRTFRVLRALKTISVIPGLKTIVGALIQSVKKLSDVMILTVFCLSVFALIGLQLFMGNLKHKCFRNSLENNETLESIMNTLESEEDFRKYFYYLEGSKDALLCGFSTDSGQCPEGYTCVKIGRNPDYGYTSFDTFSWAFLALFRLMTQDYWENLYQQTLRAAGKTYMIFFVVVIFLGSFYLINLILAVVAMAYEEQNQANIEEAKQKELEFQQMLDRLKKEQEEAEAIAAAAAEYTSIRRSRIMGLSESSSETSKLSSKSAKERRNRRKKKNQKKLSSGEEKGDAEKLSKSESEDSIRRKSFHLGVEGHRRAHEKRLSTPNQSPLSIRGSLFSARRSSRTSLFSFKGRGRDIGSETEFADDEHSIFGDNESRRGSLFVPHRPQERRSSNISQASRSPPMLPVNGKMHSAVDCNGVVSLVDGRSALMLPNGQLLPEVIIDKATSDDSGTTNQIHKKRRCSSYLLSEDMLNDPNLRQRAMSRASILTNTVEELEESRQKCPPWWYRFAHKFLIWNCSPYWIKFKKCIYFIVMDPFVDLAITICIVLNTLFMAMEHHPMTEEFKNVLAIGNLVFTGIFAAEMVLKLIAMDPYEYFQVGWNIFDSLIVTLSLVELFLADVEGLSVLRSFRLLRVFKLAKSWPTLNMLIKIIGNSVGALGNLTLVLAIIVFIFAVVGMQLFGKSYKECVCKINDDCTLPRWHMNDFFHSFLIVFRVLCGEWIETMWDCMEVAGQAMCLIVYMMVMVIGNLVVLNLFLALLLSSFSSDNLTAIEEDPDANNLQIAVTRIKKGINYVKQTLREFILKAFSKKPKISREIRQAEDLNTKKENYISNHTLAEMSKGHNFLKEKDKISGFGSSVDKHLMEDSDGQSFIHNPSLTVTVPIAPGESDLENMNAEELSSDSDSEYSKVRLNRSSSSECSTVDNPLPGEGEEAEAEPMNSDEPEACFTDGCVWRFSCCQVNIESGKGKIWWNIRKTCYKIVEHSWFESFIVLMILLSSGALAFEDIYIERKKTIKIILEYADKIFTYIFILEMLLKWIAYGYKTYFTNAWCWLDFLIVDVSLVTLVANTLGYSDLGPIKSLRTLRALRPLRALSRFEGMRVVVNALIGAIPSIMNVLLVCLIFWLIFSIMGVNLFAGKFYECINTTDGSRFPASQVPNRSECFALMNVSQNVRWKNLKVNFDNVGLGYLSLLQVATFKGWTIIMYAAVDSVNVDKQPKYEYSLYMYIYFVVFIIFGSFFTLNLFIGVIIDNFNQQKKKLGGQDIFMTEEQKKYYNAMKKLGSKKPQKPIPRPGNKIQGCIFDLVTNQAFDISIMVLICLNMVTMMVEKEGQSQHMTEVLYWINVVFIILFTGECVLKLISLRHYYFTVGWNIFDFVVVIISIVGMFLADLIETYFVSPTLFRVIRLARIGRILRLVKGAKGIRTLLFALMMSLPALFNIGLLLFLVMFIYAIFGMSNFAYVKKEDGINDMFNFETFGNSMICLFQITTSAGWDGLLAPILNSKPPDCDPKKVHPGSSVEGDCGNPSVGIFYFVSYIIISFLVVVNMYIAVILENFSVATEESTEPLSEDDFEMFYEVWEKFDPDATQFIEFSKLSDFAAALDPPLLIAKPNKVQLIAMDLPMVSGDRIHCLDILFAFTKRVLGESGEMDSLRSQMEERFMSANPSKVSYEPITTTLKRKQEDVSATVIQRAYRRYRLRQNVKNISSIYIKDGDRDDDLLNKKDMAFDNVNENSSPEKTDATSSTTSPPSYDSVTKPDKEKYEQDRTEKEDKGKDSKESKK
EXPERIMENTAL PROTOCOL: FRET-based membrane potential assay, recombinant human sodium channel Nav1.7
Format: cell-based
SETTINGS: HEK293 cells stably expressing recombinant human Nav1.7; depolarization with veratridine (EC80) + scorpion venom
Recorded pIC50 for the following molecules
Formally, pIC50 is defined as -log10 of the concentration c, with c in mol/L.

A selection of reference data follows.
INSERT INTO results (smiles_input, test_value) VALUES
  ('O=C1N(Cc2cocn2)CCCN1c1cccc2c1cnn2-c1ccccc1F', 4.85),
  ('O=C(CN1CCN(c2cccc3c2cnn3-c2ccccc2F)C1=O)NC1CCCC1', 5.84),
  ('Cc1nc(CN2CCN(c3cccc4c3cnn4-c3ccccc3F)C2=O)c(C)s1', 6.45),
  ('O=C1CCCC[C@@H]1N1CCN(c2cccc3c2cnn3-c2ccccc2F)C1=O', 4.94),
  ('O=C1N(CC(=O)N2CC3C[C@@H]4CC2C[C@H](C3)C4)CCN1c1cccc2c1cnn2-c1ccccc1F', 5.89);

[in] Need pIC50 of "O=C1N(c2cncs2)CCN1c1cccc2c1cnn2-c1ccccc1F" , thanks.
[out] 4.70

[in] Give the measured pIC50 of "O=C(CN1CCN(c2cccc3c2cnn3-c2ccccc2F)C1=O)N1CCCCCC1" .
[out] 5.61

[in] Find the recorded pIC50 belonging to "CCS(=O)(=O)N1CCN(c2cccc3c2cnn3-c2ccccc2F)C1=O" and report it.
[out] 4.70
